Data provenance: PubChem BioAssay AID463173

system: Wild type; assay: S. aureus survival, RN4220 and DeltatarO strains – OD600, teichoic acid synthesis inhibitors, primary screen (AID 463173); details: S. aureus RN4220 wild type/DeltatarO growth, OD600, 18 h, stronger effect = lower value, screened at 18.75 µg/mL (by protocol)
Hit rate of the full screen: of about 52,000 compounds, about 1,700 (3.3%) were called active. Only a selection was taken, and actives are over-represented in it overall.
Could you mark each record TRUE if its survival falls strictly under 80%, and FALSE if it equals or exceeds it?

In plain terms, does "Cc1nn(C)c2c1c(-c1ccccc1)cc(=O)n2Cc1c(F)cccc1Cl" come in under 80% for survival?
TRUE

In plain terms, does "CC(C)OC(=O)CSc1nnc(CNc2ccc(F)cc2)n1C1CCCCC1" come in under 80% for survival?
FALSE

In plain terms, does "CC(C)c1ccc(NC(=O)CN2C(=O)CSc3ccc(S(=O)(=O)N4CCCC4)cc32)cc1" come in under 80% for survival?
FALSE

In plain terms, does "Cc1ccc(-c2nc(Cn3c(=O)cc(-c4ccccc4)c4c(C)nn(C)c43)c(C)o2)cc1" come in under 80% for survival?
FALSE

In plain terms, does "CCc1nnc(SCc2c(F)cccc2Cl)c2cc3sccc3n12" come in under 80% for survival?
FALSE

In plain terms, does "CS(=O)(=O)n1c(=O)sc2ccccc21" come in under 80% for survival?
FALSE

---

test system: Wild type; assay: S. aureus survival, RN4220 and DeltatarO strains – OD600, teichoic acid synthesis inhibitors, primary screen (AID 463173); conditions: S. aureus RN4220 wild type/DeltatarO growth, OD600, 18 h, stronger effect = lower value, screened at 18.75 µg/mL (by protocol)
Out of some 52,000 compounds screened, about 1,700 (3.3%) were called active. For the sample, actives were picked, then their nearest neighbours and some compounds at random.
Assignment: determine reported survival for the given molecules.
Answers are plain numbers, in %.

Molecule: COc1ccc(CNc2oc(COc3cccc(C)c3)nc2C#N)cc1
Assay Metric: survival
Endpoint Value: 63
--
Molecule: COc1ccc(OCC(O)Cn2c(C(C)C)nc3ccccc32)cc1 (centres undefined)
Assay Metric: survival
Endpoint Value: 107
--
Molecule: Cc1nc2ccccc2n1C(C)c1ccccc1 (centres undefined)
Assay Metric: survival
Endpoint Value: 111
--
Molecule: CC(C)(C)OC(=O)N1CCC(c2c(C(=O)N3CCN(c4ccccn4)CC3)cnn2-c2ccccc2Cl)CC1
Assay Metric: survival
Endpoint Value: 53
--
Molecule: Cc1oc(C(C)(C)C)cc1C(=O)NC(Cc1ccccc1)C(=O)O (centres undefined)
Assay Metric: survival
Endpoint Value: 98
--
Molecule: COc1ccc(OCc2nc3ccccc3n2C(C)C)cc1
Assay Metric: survival
Endpoint Value: 102
--
Molecule: Cc1ccc(OCc2nc3ccccc3n2CC(C)C)cc1
Assay Metric: survival
Endpoint Value: -1
--
Molecule: CCCCN(CC)CCCNC(=O)c1ccc2c(c1)NC(=O)CN2C
Assay Metric: survival
Endpoint Value: 57

# ---- query molecule ----
State its survival for this molecule: CCC(C)Cn1c(COc2ccc(OC)cc2)nc2ccccc21 (centres undefined)
-1

---

tested on: Wild type; experiment: S. aureus survival, RN4220 and DeltatarO strains – OD600, teichoic acid synthesis inhibitors, primary screen (AID 463173); settings: S. aureus RN4220 wild type/DeltatarO growth, OD600, 18 h, stronger effect = lower value, screened at 18.75 µg/mL (by protocol)
Out of some 52,000 compounds screened, about 1,700 (3.3%) were called active. The sample as a whole holds a higher share of actives than the screen did.
Could you mark each record 1 (yes) if its survival falls strictly under 70%, and 0 (no) if it equals or exceeds it?

In plain terms, does "COc1ccc2c(c1)c1c(c(=O)n(-c3cccc(Cl)c3)c(=O)n1CC(=O)N1CCCC1)n2C" come in under 70% for survival?
0 (no)

In plain terms, does CCCCN1CC(c2nc3ccccc3n2CCCCOc2ccc(C)cc2C)CC1=O (configuration not stated) come in under 70% for survival?
1 (yes)

In plain terms, does "CN(C)c1ccc(CNC(=O)CCCn2ccc3cc(S(=O)(=O)N4CCCC4)ccc32)cc1" come in under 70% for survival?
1 (yes)

In plain terms, does CC(C)N(C(=O)Cn1nnc2ccccc21)C(C(=O)NCc1ccco1)c1ccccc1 (configuration not stated) come in under 70% for survival?
0 (no)

---

system: Wild type; test: S. aureus survival, RN4220 and DeltatarO strains – OD600, teichoic acid synthesis inhibitors, primary screen (AID 463173); conditions: S. aureus RN4220 wild type/DeltatarO growth, OD600, 18 h, stronger effect = lower value, screened at 18.75 µg/mL (by protocol)
Among all 52,000 compounds or so, about 1,700 (3.3%) were called active. Shown is part of a subset that was picked to be rich in actives.
Could you mark each record class 1 if its survival falls strictly under 70%, and class 0 if it equals or exceeds it?

A selection of reference data follows.
Given Smiles: Cc1ccc(-n2ncc(C(=O)NCc3ccc4c(c3)OCO4)c2C2CCN(C(=O)OC(C)(C)C)CC2)cc1C
Class Assignment: class 0

Given Smiles: CCn1c(COc2ccc(Cl)cc2Cl)nc2ccccc21
Class Assignment: class 0

Given Smiles: Cc1ccc(Nc2nc3ccccc3c3nncn23)c(Cl)c1
Class Assignment: class 0

In plain terms, does "Cc1ccc(OCC(=O)OCc2cc(=O)n3nc(C4CCCCC4)sc3n2)cc1C" come in under 70% for survival?
class 0

In plain terms, does "COc1cccc(Cn2c(=O)cc(C)c3c(C)nn(C)c32)c1" come in under 70% for survival?
class 0

In plain terms, does "CCN(CC)C(=O)Cn1c(=O)cc(C)c2c(C)nn(-c3cccc(Cl)c3C)c21" come in under 70% for survival?
class 0

In plain terms, does "C=Cc1ccc(Cn2c(=O)cc(C)c3c(C)nn(-c4ccccc4)c32)cc1" come in under 70% for survival?
class 1

In plain terms, does "CCS(=O)(=O)c1ccccc1C(=O)Nc1ccc(-c2nc3ccccc3s2)cc1" come in under 70% for survival?
class 0

In plain terms, does "Cc1ccc(C)c(Cn2c(=O)cc(C)c3c(C)nn(C)c32)c1" come in under 70% for survival?
class 1

In plain terms, does "COC(=O)c1ccc(Cn2c(=O)cc(C)c3c(C)nn(C)c32)cc1" come in under 70% for survival?
class 1

In plain terms, does "Cc1nc(-c2ccccc2)sc1-c1ccc(SCC(=O)Nc2ccc(F)cc2F)nn1" come in under 70% for survival?
class 1

---

system: Wild type; test: S. aureus survival, RN4220 and DeltatarO strains – OD600, teichoic acid synthesis inhibitors, primary screen (AID 463173); conditions: S. aureus RN4220 wild type/DeltatarO growth, OD600, 18 h, stronger effect = lower value, screened at 18.75 µg/mL (by protocol)
The campaign covered roughly 52,000 compounds. About 1,700 (3.3%) were called active. Only a selection was taken, and actives are over-represented in it overall.
Assay Metric: survival (%)
Numbers only, in %.

Each of the following entries comes with a recorded value; kindly state survival for each.
1. Cc1ccc(C)c(S(=O)(=O)c2cn(C)c3cc(F)c(F)cc3c2=O)c1
2. CCS(=O)(=O)NCC(c1ccco1)N1CCN(c2ccccc2)CC1 (stereo not given)
3. N#Cc1c(Nc2cccc(F)c2)sc(C(=O)c2ccc(Cl)cc2)c1N
4. Fc1ccc(-c2nc(-c3cccs3)c(-c3cccs3)[nH]2)cc1
5. CNC(=O)C1CCC(Cn2c(=O)c3sccc3n(CC(=O)NCc3ccccc3)c2=O)CC1 (stereo not given)

1: 81; 2: 89; 3: 101; 4: 79; 5: 0

Each of the following entries comes with a recorded value; kindly state survival for each.
1. CCOc1ccccc1-c1noc(CSc2nnc(-c3ccccc3)n2-c2ccc(F)cc2)n1
2. COc1ccccc1Cc1nc2ccccc2nc1SCC(=O)Nc1ccc2c(c1)OCO2
3. Cc1ccc(-c2nc(-c3cccs3)c(-c3cccs3)[nH]2)cc1
4. COc1ccc(CNC(=O)c2cc3sccc3n2CC(=O)c2ccccc2)cc1
5. CCc1cccc(C)c1NC(=O)CCS(=O)(=O)c1cc(Br)cc2c1N(C(=O)C1CC1)CC2

1. 117
2. 45
3. 76
4. 110
5. 85

---

Assignment: determine reported survival for the given compounds.
system: Wild type; assay: S. aureus survival, RN4220 and DeltatarO strains – OD600, teichoic acid synthesis inhibitors, primary screen (AID 463173); settings: S. aureus RN4220 wild type/DeltatarO growth, OD600, 18 h, stronger effect = lower value, screened at 18.75 µg/mL (by protocol)
Out of some 52,000 compounds screened, about 1,700 (3.3%) were called active. The entries come from a sample that favours actives as a whole.
Answers are plain numbers, in %.

Worked cases, survival given:
Given Smiles: O=C(NCc1ccccc1)c1cc(Sc2cccc(Cl)c2)nc2ccccc12
survival (%): 78

Given Smiles: C=CCn1c(=O)[nH]c(=O)n(CC=C)c1=O
survival (%): 111

Given Smiles: Cc1ccc(-c2nc(CCNC(=O)C(=O)Nc3ccc(C)c(C)c3)cs2)cc1
survival (%): -3

Given Smiles: COc1cc(C(=O)N(Cc2cccnc2)c2nc3cc(C)c(C)cc3s2)cc(OC)c1OC
survival (%): 22

Given Smiles: CCOc1ccc(CCNC(=O)CS(=O)(=O)Cc2nc(-c3cccc(Cl)c3)oc2C)cc1
survival (%): 82

Each of the following entries comes with a recorded value; kindly state survival for each.
1. COc1ccc2nc(N(Cc3cccnc3)C(=O)c3ccco3)sc2c1
2. CCc1ccc(NS(=O)(=O)c2ccc(C(=O)N(C)C)s2)cc1

70
64
